Record type: pIC50 measurement. Applies to: Full length DGKα (D21-10BG, SignalChem) (Homo sapiens)
Entry type: numeric. Quantity: pIC50, the -log10 of concentration in molar units.

CC(c1ccc2c(c1)OC(C)(C)CO2)N1C[C@H](C)N(c2c(F)c(=O)n(C)c3c2nc(CC#N)n3C)C[C@H]1C (single isomer, unassigned) [Compound A19a] | 4.56

Would you kindly look at the next entry?
Checklist item: pIC50 tested on Full length DGKα (D21-10BG, SignalChem) (Homo sapiens), entry CCn1c(CC#N)nc2c(N3C[C@@H](C)N(C(C)c4ccc5nc(C)sc5c4)C[C@@H]3C)nc(=O)n(C)c21 (single isomer, unassigned) [Compound A56a] , value?
3.97

###

Target: Full length DGKζ (in-house protein M1-V929) (Homo sapiens)
Construct: His (N); TEV site (N)
Sequence (Q13574 1-929 isoform Q13574-4): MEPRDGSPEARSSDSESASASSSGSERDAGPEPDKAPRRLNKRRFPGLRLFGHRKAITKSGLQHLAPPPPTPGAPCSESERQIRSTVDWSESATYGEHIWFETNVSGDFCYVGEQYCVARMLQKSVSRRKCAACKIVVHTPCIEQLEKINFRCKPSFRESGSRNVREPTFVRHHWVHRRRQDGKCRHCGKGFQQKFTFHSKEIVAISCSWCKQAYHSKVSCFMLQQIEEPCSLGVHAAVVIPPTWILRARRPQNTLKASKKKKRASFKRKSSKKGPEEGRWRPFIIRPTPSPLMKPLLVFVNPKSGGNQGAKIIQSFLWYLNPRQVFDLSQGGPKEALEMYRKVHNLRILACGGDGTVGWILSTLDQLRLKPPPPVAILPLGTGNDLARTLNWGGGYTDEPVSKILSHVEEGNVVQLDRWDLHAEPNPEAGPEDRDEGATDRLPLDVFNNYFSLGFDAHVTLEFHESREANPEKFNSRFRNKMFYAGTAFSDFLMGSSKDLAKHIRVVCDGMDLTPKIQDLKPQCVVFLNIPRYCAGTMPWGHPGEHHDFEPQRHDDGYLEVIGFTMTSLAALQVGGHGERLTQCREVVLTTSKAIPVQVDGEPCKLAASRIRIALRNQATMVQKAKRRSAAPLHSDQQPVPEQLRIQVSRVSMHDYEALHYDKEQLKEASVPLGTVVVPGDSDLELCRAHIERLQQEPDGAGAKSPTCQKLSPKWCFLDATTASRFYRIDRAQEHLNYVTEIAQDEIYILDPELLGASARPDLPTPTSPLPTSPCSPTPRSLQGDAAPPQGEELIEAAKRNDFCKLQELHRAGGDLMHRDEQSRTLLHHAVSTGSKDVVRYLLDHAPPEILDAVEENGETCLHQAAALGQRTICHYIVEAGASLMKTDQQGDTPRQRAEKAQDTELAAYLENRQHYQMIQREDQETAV
Experiment: Biochemical DGK IC50 assay (ADP-Glo, lipid micelle substrate), DGKζ
Settings: 1 hour preincubation, 1 hour reaction, room temperature
measured.attribute: log10 IC50 (log10 of the value in nM)
// units: nM (pre-log); metric: IC50; scale: log10

Past entries and their recorded results:
CCn1c(CC#N)nc2c(N3C[C@@H](C)N(C(C)c4cccc(C(C)(C)CO)c4)C[C@@H]3C)nc(=O)n(C)c21 (stereo partly shown) | 2.05
CCn1c(CC#N)nc2c(N3C[C@@H](C)N(C(C)c4ccc5c(c4)OC(C)(C)CO5)C[C@@H]3C)nc(=O)n(C)c21 (single isomer, unassigned) [Compound A60b] | 2.31
CC(c1ccc(F)cc1C(F)(F)F)N1C[C@H](C)N(c2cc(=O)n(C)c3c2nc(CC#N)n3C)C[C@H]1C (stereo partly shown) | 1.96
CCn1c(CC#N)nc2c(N3C[C@@H](C)N(C(C)c4cc5c(cc4F)OC(C)(C)CO5)C[C@@H]3C)nc(=O)n(C)c21 (single isomer, unassigned) [Compound A156a] | 2.70
C=C(C)c1cc(C(C)N2C[C@H](C)N(c3nc(=O)n(C)c4c3nc(CC#N)n4CC)C[C@H]2C)ccc1F (stereo partly shown) | 1.15

Need log10 IC50, item COC[C@H]1CN(C(C)c2ccc3ncc(C)nc3c2)[C@H](C)CN1c1nc(=O)n(C)c2c1nc(CC#N)n2C (single isomer, unassigned) [Compound A13a]
3.70

Need log10 IC50, item CC(c1nc2c(cc1F)OCC(C)(C)O2)N1C[C@H](C)N(c2nc(=O)n(C)c3c2nc(CC#N)n3C)C[C@H]1C (stereo partly shown)
1.52

###

Record type: IC50 measurement. Applies to: Full length DGKα (D21-10BG, SignalChem) (Homo sapiens, UniProt P23743)

Past entries and their recorded results:
CC(c1ccc2nccnc2c1)N1C[C@H](C)N(c2c(F)c(=O)n(C)c3c2nc(CC#N)n3C)C[C@H]1C (single isomer, unassigned) [Compound A22a] | > 10 µM
C=C(C)c1cc(C(C)N2C[C@H](C)N(c3nc(=O)n(C)c4c3nc(CC#N)n4CC)C[C@H]2C)ccc1F (stereo partly shown) | > 150 µM
CCn1c(CC#N)nc2c(N3C[C@@H](C)N(C(C)c4ccc(N5CCOCC5)cc4)C[C@@H]3C)nc(=O)n(C)c21 (stereo partly shown) | > 150 µM

Would you kindly look at the next entry?
Need IC50, item CCn1c(CC#N)nc2c(N3C[C@@H](C)N(C(C)c4ccnc5c4OCCC5(F)F)C[C@@H]3C)nc(=O)n(C)c21 (single isomer, unassigned) [Compound A103b]
> 150 µM
